# assay.overview: NCI Yeast Anticancer Drug Screen. Data for the cln2 rad14 strain (AID 165)
# run.parameters: S. cerevisiae cln2 rad14 strain, at 50.0 µM
# Experimental: Growth inhibition of yeast strains with defined genetic alterations is measured as a screen for potential anti-cancer activity. Selected strains with alterations in DNA damage repair or cell cycle control were exposed to compounds and growth inhibition was measured relative to vehicle treated controls. The strain used in this assay is cln2 rad14
This is part of a sample that, as a whole, favours compounds with a hit. Of some 79,000 tested, about 15% had one in any assay. The source made the active and inactive calls. Cut-off read from the data, not from the text of the source: active = growth inhibition above about 70%; inactive = the rest.
Possible outcomes: active, inactive

* C/C(=N\NC(=S)N(C)C1CCCCC1)c1ccc2ccccc2n1 | active
* c1ccc(N/N=C(/CC/C(=N\Nc2ccccc2)c2ccccc2)c2ccccc2)cc1 | inactive
* OC[P+](CO)(CO)C12CC3CC(CC(C3)C1)C2 | inactive
* CCOC(=O)C(CO)c1nc2c([nH]c1=O)c(=O)n(C)c(=O)n2C (stereo unspecified) | inactive
* COc1ccc2c(c1)C(=O)C(Br)CC2 (stereo unspecified) | inactive
* Nc1ccc2c(SCCSc3c4ccccc4nc4cc(N)ccc34)c3ccccc3nc2c1 | inactive
